Source of measurements: patent US20260335278A1

# System: zebrafish larvae
# assay.notes: Light/Dark Stress Response (5 min alternating pulses of dark and light for 30 min)
# Assay type: in vivo
# Design: key: +: statistically significant increase; −−: statistically significant decrease
# details: High
quantity.kind: Light/Dark Stress Response

// worked examples, Light/Dark Stress Response included
1) CCCCCCCCCCCCCCCC(=O)NCCO [N-palmitoyl ethanolamide (PEA), N-palmitoyl ethanolamide] : +
2) COc1ccc(/C=C/c2cc(OC)cc(=O)o2)cc1 [yangonin] : −−
3) O=c1cc(-c2ccccc2)oc2cc(O)c(O)c(O)c12 [bacalein] : −−
4) O=C(/C=C/C=C/c1ccc2c(c1)OCO2)N1CCCCC1 [piperine] : −−

Next item in the queue.
Q: // Light/Dark Stress Response lookup, key: C=C(C)[C@@H]1CCC(C)=C[C@H]1c1c(O)cc(CCCCC)cc1O [cannabidiol (CBD), cannabidiol, reference compound]
Result: −−
